# System: LoVo human colorectal adenocarcinoma cells
# Method: In vitro antiproliferative assay (SRB), LoVo
# Type: cell-based
# Measurement Context: LoVo, 72 h exposure, SRB, mean ± SD
Parameter Measured: IC50 (µM)
API: value field is a number in µM; no unit string.

Qu. Quick one: IC50 for N.N.[Cl][Pt][Cl] [Cisplatin, cisplatin, reference compound] ?
Ans. 4.32

###

# Tested on: MV-4-11 human myelomonocytic leukemia cells
# Method: In vitro antiproliferative assay (MTT), MV-4-11
# Format: cell-based
# Measurement Context: Homo sapiens, MV4-11; MV-4-11, 72 h exposure, MTT, mean ± SD
Quick list: pIC50 per entry.
Please note pIC50 is a logarithmic value: minus log10 of concentration in mol/L. Answer with that number alone.

Qu. Request the reported pIC50 associated with `COc1cc(O)c(CC=C(C)C)c(O)c1C(=O)/C=C/c1ccc(O)cc1`
Ans. 5.09

Qu. Please report the recorded pIC50 for `COc1cc(O)c(CC=C(C)C)c2c1C(=O)/C(=C/c1ccc(O)cc1)O2` .
Ans. 5.13

###

Each entry below lists one item and its recorded IC50 value.
# Tested on: MCF-7 human breast adenocarcinoma cells
# Method: In vitro antiproliferative assay (SRB), MCF-7
# Assay type: cell-based
# Measurement Context: Homo sapiens, MCF7; MCF-7, 72 h exposure, SRB, mean ± SD
Use µM as the unit, but write only the number.

[[record]]
smiles_string = "COc1cc(O)c(CC=C(C)C)c(O)c1C(=O)/C=C/c1ccc(O)cc1"
reported_measurement = 9.29


Attention now shifts to the item below.
Qu. What does the record list as IC50 for `COc1cc(O)c(CC=C(C)C)c2c1C(=O)/C(=C/c1ccc(O)cc1)O2` ?
Ans. 9.28

###

# Tested on: T47D human breast ductal carcinoma cells
# Method: In vitro antiproliferative assay (SRB), T47D
# Format: cell-based
# Measurement Context: T47D, 72 h exposure, SRB, mean ± SD
Parameter Measured: IC50 (µM)
Write the answer as a number in µM, unit excluded.

Qu. Which IC50 value belongs to N.N.[Cl][Pt][Cl] [Cisplatin, cisplatin, reference compound] ?
Ans. 13.1

###

# System: MCF-7 human breast adenocarcinoma cells
# Method: In vitro antiproliferative assay (SRB), MCF-7
# Format: cell-based
# Measurement Context: MCF-7, 72 h exposure, SRB, mean ± SD
Parameter Measured: pIC50
Value format note: pIC50 is -log10 of concentration (mol/L); just state the number.

Qu. # input compound: N.N.[Cl][Pt][Cl] [Cisplatin, cisplatin, reference compound] ; wanted: its pIC50
Ans. 4.95

###

Overview of recorded IC50 for various compounds
# Tested on: human lung microvascular endothelial (HLMEC) cells
# Method: In vitro cytotoxicity against normal cells (SRB), HLMEC
# Format: cell-based
# Measurement Context: Homo sapiens; HLMEC normal cell line, 72 h exposure, SRB, mean ± SD; read-out: Antiproliferative activity IC50
Entry rule: numbers only, all in µM.

Qu. Would you kindly share the measured IC50 for COc1cc(O)c(CC=C(C)C)c2c1C(=O)/C(=C/c1ccc(O)cc1)O2 [compound 2] ?
Ans. 52.8

Qu. For COc1cc(O)c(CC=C(C)C)c(O)c1C(=O)/C=C/c1ccc(O)cc1 [compound 1] , what is its reported IC50?
Ans. 36.3
